Tested on: PCSK9 gene
test: PCSK9 gRNA/SpCas9 editing in primary cynomolgus hepatocytes (Tables 2, 22)
Assay type: cell-based, cynomolgus monkey
measurement setup: 100 ng/RNA/mL; SpCas9 mRNA MS002 1:1 by weight
In the oligonucleotide strings, read from the 5' end, every base follows the letter of its sugar. An asterisk marks phosphorothioate; unmarked linkages are phosphodiester. Other units and linkages are bracketed, terminal groups are in braces. A string of capitals states the bases alone. m = 2'-O-methyl; r = 2'-OH (RNA)
So I've got a bunch of molecules here, and I need their Cyno Primary Hepatocyte Editing % 100 values.
Answers are plain numbers, in %.

GA216: PCSK9 gRNA; protospacer CCGGGATGCCGGCGTGGCCA (SEQ ID NO: 210) (nucleic acid, sugars from the 5' end m3 r94 m3, linkages s3 o93 s3 (s phosphorothioate, o phosphodiester), T or U not given here) guide: CCGGGAUGCCGGCGUGGCCAGUUUUAGAGCUAGAAAUAGCAAGUUAAAAUAAGGCUAGUCCGUUAUCAACUUGAAAAAGUGGCACCGAGUCGGUGCUUUU ... 1.77
GA166: PCSK9 gRNA; protospacer CGCCCGTGCGCAGGAGGACG (SEQ ID NO: 160) (nucleic acid, sugars from the 5' end m3 r94 m3, linkages s3 o93 s3 (s phosphorothioate, o phosphodiester), T or U not given here) guide: CGCCCGUGCGCAGGAGGACGGUUUUAGAGCUAGAAAUAGCAAGUUAAAAUAAGGCUAGUCCGUUAUCAACUUGAAAAAGUGGCACCGAGUCGGUGCUUUU ... 3.93
GA199: PCSK9 gRNA; protospacer GAAGCGGGTCCCGTCCTCCT (SEQ ID NO: 193) (nucleic acid, sugars from the 5' end m3 r94 m3, linkages s3 o93 s3 (s phosphorothioate, o phosphodiester), T or U not given here) guide: GAAGCGGGUCCCGUCCUCCUGUUUUAGAGCUAGAAAUAGCAAGUUAAAAUAAGGCUAGUCCGUUAUCAACUUGAAAAAGUGGCACCGAGUCGGUGCUUUU ... 3.07

Quick batch: Cyno Primary Hepatocyte Editing % 100 for everything below.
1. GA159: PCSK9 gRNA; protospacer GCGTTCCGAGGAGGACGGCC (SEQ ID NO: 153) (nucleic acid) guide: mG*mC*mG*rUrUrCrCrGrArGrGrArGrGrArCrGrGrCrCrGrUrUrUrUrArGrArGrCrUrArGrArArArUrArGrCrArArGrUrUrArArArArUrArArGrGrCrUrArGrUrCrCrGrUrUrArUrCrArArCrUrUrGrArArArArArGrUrGrGrCrArCrCrGrArGrUrCrGrGrUrGrCrU*mU*mU*mU
2. GA228: PCSK9 gRNA; protospacer CGGCTGTACCCACCCGCCAG (SEQ ID NO: 222) (nucleic acid, sugars from the 5' end m3 r94 m3, linkages s3 o93 s3 (s phosphorothioate, o phosphodiester), T or U not given here) guide: CGGCUGUACCCACCCGCCAGGUUUUAGAGCUAGAAAUAGCAAGUUAAAAUAAGGCUAGUCCGUUAUCAACUUGAAAAAGUGGCACCGAGUCGGUGCUUUU
3. GA213: PCSK9 gRNA; protospacer CGTGCTCAACTGCCAAGGGA (SEQ ID NO: 207) (nucleic acid, sugars from the 5' end m3 r94 m3, linkages s3 o93 s3 (s phosphorothioate, o phosphodiester), T or U not given here) guide: CGUGCUCAACUGCCAAGGGAGUUUUAGAGCUAGAAAUAGCAAGUUAAAAUAAGGCUAGUCCGUUAUCAACUUGAAAAAGUGGCACCGAGUCGGUGCUUUU
4. GA175: PCSK9 gRNA; protospacer GAAGATGAGTGGCGACCTGC (SEQ ID NO: 169) (nucleic acid, sugars from the 5' end m3 r94 m3, linkages s3 o93 s3 (s phosphorothioate, o phosphodiester), T or U not given here) guide: GAAGAUGAGUGGCGACCUGCGUUUUAGAGCUAGAAAUAGCAAGUUAAAAUAAGGCUAGUCCGUUAUCAACUUGAAAAAGUGGCACCGAGUCGGUGCUUUU
5. GA235: PCSK9 gRNA; protospacer CACCGCTGCCGGCAACTTCC (SEQ ID NO: 228) (nucleic acid, sugars from the 5' end m3 r94 m3, linkages s3 o93 s3 (s phosphorothioate, o phosphodiester), T or U not given here) guide: CACCGCUGCCGGCAACUUCCGUUUUAGAGCUAGAAAUAGCAAGUUAAAAUAAGGCUAGUCCGUUAUCAACUUGAAAAAGUGGCACCGAGUCGGUGCUUUU
6. GA169: PCSK9 gRNA; protospacer CGTGCGCAGGAGGACGAGGA (SEQ ID NO: 163) (nucleic acid, sugars from the 5' end m3 r94 m3, linkages s3 o93 s3 (s phosphorothioate, o phosphodiester), T or U not given here) guide: CGUGCGCAGGAGGACGAGGAGUUUUAGAGCUAGAAAUAGCAAGUUAAAAUAAGGCUAGUCCGUUAUCAACUUGAAAAAGUGGCACCGAGUCGGUGCUUUU

[1.19, 1.95, 2.73, 1.45, 2.51, 3.45]

Take each entry in turn and give its Cyno Primary Hepatocyte Editing % 100.
1. GA245: PCSK9 gRNA; protospacer GTGCTGCTGCCCCTGGCGGG (SEQ ID NO: 238) (nucleic acid, sugars from the 5' end m3 r94 m3, linkages s3 o93 s3 (s phosphorothioate, o phosphodiester), T or U not given here) guide: GUGCUGCUGCCCCUGGCGGGGUUUUAGAGCUAGAAAUAGCAAGUUAAAAUAAGGCUAGUCCGUUAUCAACUUGAAAAAGUGGCACCGAGUCGGUGCUUUU
2. GA236: PCSK9 gRNA; protospacer AGCCCTCGCCAGGCGCTGGC (SEQ ID NO: 229) (nucleic acid, sugars from the 5' end m3 r94 m3, linkages s3 o93 s3 (s phosphorothioate, o phosphodiester), T or U not given here) guide: AGCCCUCGCCAGGCGCUGGCGUUUUAGAGCUAGAAAUAGCAAGUUAAAAUAAGGCUAGUCCGUUAUCAACUUGAAAAAGUGGCACCGAGUCGGUGCUUUU

0.19
2.31
